biological target: 5-lipoxygenase (Rattus norvegicus, UniProt P12527); construct: endogenous in cells; host or cells: casein-elicited peritoneal polymorphonuclear leukocytes of male Sprague-Dawley rats; assay: PMN5LO assay: inhibition of LTB4 production in A23187-stimulated rat peritoneal PMN (RIA); assay type: cell-based; conditions: estimated concentration required for 50% inhibition
Sequence (P12527 whole entry): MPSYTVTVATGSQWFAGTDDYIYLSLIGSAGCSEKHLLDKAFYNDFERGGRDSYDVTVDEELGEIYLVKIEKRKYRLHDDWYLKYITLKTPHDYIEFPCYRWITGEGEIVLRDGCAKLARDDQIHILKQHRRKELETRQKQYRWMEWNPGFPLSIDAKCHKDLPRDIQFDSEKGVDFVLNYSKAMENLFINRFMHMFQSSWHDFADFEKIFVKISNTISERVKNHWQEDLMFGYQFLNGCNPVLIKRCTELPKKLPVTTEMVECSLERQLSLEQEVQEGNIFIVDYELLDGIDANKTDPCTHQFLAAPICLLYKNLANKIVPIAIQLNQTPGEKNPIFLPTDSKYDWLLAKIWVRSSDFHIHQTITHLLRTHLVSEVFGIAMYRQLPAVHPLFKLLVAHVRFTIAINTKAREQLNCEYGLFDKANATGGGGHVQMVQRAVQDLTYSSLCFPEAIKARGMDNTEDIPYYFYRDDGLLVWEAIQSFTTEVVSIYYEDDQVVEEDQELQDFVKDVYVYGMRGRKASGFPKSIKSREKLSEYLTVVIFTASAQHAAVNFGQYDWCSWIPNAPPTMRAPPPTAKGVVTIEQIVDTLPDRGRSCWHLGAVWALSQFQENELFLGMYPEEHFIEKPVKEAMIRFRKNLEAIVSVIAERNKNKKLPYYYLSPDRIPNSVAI
Let's look at some compounds and their measured IC50.

The following compounds have reported results that may help.
compound=COc1ccc(-c2sc3c(c2OC(C)=O)CCCc2ccccc2-3)cc1 reported_measurement="> 3 µM"
compound="Oc1c(-c2ccccc2)sc(-c2ccccc2)c1-c1ccccc1 [Compound 2, 3-Hydroxy-2,4,5-triphenylthiophene]" reported_measurement="~3 µM"

input: Requested field: IC50. Item: `CC(=O)Oc1c(-c2ccccc2)sc(-c2ccccc2)c1-c1ccccc1`
output: > 3 µM
